assay: CREB reporter modulators under forskolin, primary screen, cell-based, PC12, CRE-LacZ reporter, forskolin-stimulated (AID 1146); conditions: luminescence, 4.5 h, higher = more signal, called active from +8 up or from −8 down;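 note: PC12 cells with 6xCRE LacZ reporter stimulated by forskolin 10 µM; beta-galactosidase reporter signal reflecting CREB driven transcription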

Molecule: COc1cccc([C@@H]2Oc3ccc(Br)cc3C(=O)[C@H]2O)c1
z-score: 0.136

Molecule: O=C(NN=C1C[C@@H](O)[C@@H](O)[C@@H]2[C@@H]3C(=O)N(c4ccc(F)cc4F)C(=O)[C@@H]3CC[C@@H]12)OCc1ccccc1
z-score: 0.829

Molecule: COC(=O)CC=C[C@@H](C)[C@@H](C=NO[C@@H](C)c1cc(-c2c(C)cc(C)cc2C)no1)OC
z-score: -0.254

Molecule: COc1ccc([Si](C)(C)[C@H]2[C@H](CC(=O)N3CCC[C@H]3CO)O[C@@]3(C(=O)N(Cc4cccc(N5C(=O)COc6ccccc65)c4)c4ccccc43)[C@@H]2C)cc1
z-score: -1.22

Molecule: C[C@H]1CC[C@@H](C(=O)O)N[C@@H]1c1ccc(C#CCN(C)C)cc1
z-score: -1.12

Molecule: C=CC[C@]1(C(=O)NCc2ccccc2)N=C(c2ccc(OCCCO)cc2)O[C@H]1c1ccccc1
z-score: 1.34

* * *

Entries and their composite z-score
target: Albumin (Bos taurus) (UniProt P02769); assay: bovine serum albumin binders on microarray, profiling panel, artefact control for SMM control protein annotation, biochemical, small-molecule microarray, Alexa647 label, 635/667 nm fluorescence (AID 1118); conditions: BSA-A647 binding, fluorescence 635 nm, higher = more signal;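 note: score merges 667 nm emission intensity and signal-to-noise per printed compound spot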
Sequence (P02769 whole entry, looked up): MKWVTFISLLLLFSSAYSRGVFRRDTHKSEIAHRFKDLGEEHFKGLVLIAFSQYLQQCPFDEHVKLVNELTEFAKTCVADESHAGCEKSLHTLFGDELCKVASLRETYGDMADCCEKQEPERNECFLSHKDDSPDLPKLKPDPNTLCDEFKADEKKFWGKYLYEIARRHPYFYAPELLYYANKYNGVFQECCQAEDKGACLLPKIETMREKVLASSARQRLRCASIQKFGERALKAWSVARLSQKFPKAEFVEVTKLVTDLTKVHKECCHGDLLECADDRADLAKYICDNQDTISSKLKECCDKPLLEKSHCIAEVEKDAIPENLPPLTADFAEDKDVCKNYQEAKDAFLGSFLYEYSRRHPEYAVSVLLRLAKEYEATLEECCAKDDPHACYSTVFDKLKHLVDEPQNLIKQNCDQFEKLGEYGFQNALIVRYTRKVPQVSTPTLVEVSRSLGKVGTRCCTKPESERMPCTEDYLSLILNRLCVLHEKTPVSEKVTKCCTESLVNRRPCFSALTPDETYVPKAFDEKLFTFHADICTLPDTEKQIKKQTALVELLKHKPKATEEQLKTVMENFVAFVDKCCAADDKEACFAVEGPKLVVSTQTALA
Assay metric: composite z-score

Molecule: CC(C)(C)N1C(=O)[C@H]2[C@H]3[C@H](O)[C@H](O)CC(=NOCc4ccccc4)[C@@H]3CC[C@H]2C1=O
Test target: Albumin (Bos taurus) (UniProt P02769)
Assay metric: composite z-score
Obs value: 0.8
--
Molecule: C[C@@H](c1ccccc1)N1C(=O)[C@H]2[C@H]3[C@H](O)[C@H](O)CC(=NNC(=O)OCc4ccccc4)[C@H]3CC[C@H]2C1=O
Test target: Albumin (Bos taurus) (UniProt P02769)
Assay metric: composite z-score
Obs value: 0.3
--
Molecule: CC(CCN1CCc2nc(-c3ccccc3)c(-c3ccccc3)cc2C1)=NO[C@@H](C)c1cn([C@H](CO)Cc2ccccc2)nn1
Test target: Albumin (Bos taurus) (UniProt P02769)
Assay metric: composite z-score
Obs value: 0.908
--
Molecule: CN(C)CCCNC(=O)[C@@H]1c2ccccc2C(=O)N(Cc2ccccc2)[C@H]1c1ccc(CO)cc1
Test target: Albumin (Bos taurus) (UniProt P02769)
Assay metric: composite z-score
Obs value: -0.688
--
Molecule: CCOC(=O)NN=C1C[C@@H](O)[C@@H](O)[C@@H]2[C@@H]3C(=O)N(C4CCCCC4)C(=O)[C@@H]3CC[C@@H]12
Test target: Albumin (Bos taurus) (UniProt P02769)
Assay metric: composite z-score
Obs value: 0.272
--
Molecule: CCOC(=O)[C@H](CC(C)C)NC(=O)CCC1CC(OC(=O)NCc2cccc3ccccc23)CC2(CCCC(COC(=O)NCCc3ccccc3OC)O2)O1 (stereo partly drawn)
Test target: Albumin (Bos taurus) (UniProt P02769)
Assay metric: composite z-score
Obs value: 0.752
--
Molecule: Cc1cc(C)c(-c2cc([C@H](C)ON=C3[C@H]4CCn5c(=O)n(-c6ccccc6)c(=O)n5[C@H]4[C@H](O)[C@@H]4O[C@H]34)on2)c(C)c1
Test target: Albumin (Bos taurus) (UniProt P02769)
Assay metric: composite z-score
Obs value: 0.652
--
Molecule: O=C1O[C@@H](c2ccccc2)[C@@H](c2ccccc2)N2[C@@H](c3ccc(OCCO)cc3)[C@]3(C(=O)Nc4ccccc43)[C@@H](C(=O)N3CCN(c4ncccn4)CC3)[C@H]12
Test target: Albumin (Bos taurus) (UniProt P02769)
Assay metric: composite z-score
Obs value: 0.162
--
Molecule: CCOC(=O)C1=CCC(c2cc3ccccc3[nH]2)NC1 (stereo not drawn)
Test target: Albumin (Bos taurus) (UniProt P02769)
Assay metric: composite z-score
Obs value: 0.653
--
Molecule: O=C1C2C=CC(C(O)c3ccc([N+](=O)[O-])cc3)N(Nc3ccc([N+](=O)[O-])cc3)C2C(=O)N1c1ccccc1 (stereo not drawn)
Test target: Albumin (Bos taurus) (UniProt P02769)
Assay metric: composite z-score
Obs value: 0.921
--
Molecule: C#CCCCON=C1C[C@@H](O)[C@@H](O)[C@@H]2[C@@H]3C(=O)N(CCC(=O)OCC)C(=O)[C@@H]3CC[C@@H]12
Test target: Albumin (Bos taurus) (UniProt P02769)
Assay metric: composite z-score
Obs value: 0.674
--
Molecule: CC(=O)OC[C@H]1O[C@H](CCON=C(C)CCC(=O)OC[C@H]2O[C@H](C#Cc3ccccc3)C=C[C@@H]2Oc2ccc(C)cc2)C=C[C@@H]1OC(C)=O
Test target: Albumin (Bos taurus) (UniProt P02769)
Assay metric: composite z-score
Obs value: 0.208
--
Molecule: CCOC(=O)NN=C1C[C@@H](O)[C@@H](O)[C@@H]2[C@@H]3C(=O)N(C4CCCCC4)C(=O)[C@@H]3CC[C@H]12
Test target: Albumin (Bos taurus) (UniProt P02769)
Assay metric: composite z-score
Obs value: 0.801
